Data credit: PubChem BioAssay (NCI)

Items are presented alongside their recorded growth.
test system: SF-295 CNS; assay: NCI-60 one-dose screen, 48 h (100 = growth as untreated, 0 = no growth, -100 = all killed); conditions: 10 µM unless noted
This is part of a sample that, as a whole, favours compounds with a hit. Of some 83,000 tested, about 20% had one in any assay.

{"compound": "COc1ccc2[nH]c(=O)cc(-n3ncc(C(=O)/C=C/c4cc(OC)c(OC)c(OC)c4)c3C)c2c1", "experimental system": "SF-295 CNS", "growth [%]": 11.3}
{"compound": "O=C1Nc2ccccc2/C1=C\\c1ccc(OCC(=O)c2ccc(Br)cc2)cc1", "experimental system": "SF-295 CNS", "growth [%]": 58.6}
{"compound": "Cc1oc(-c2ccccc2)nc1CN[C@@H]1C[C@@H]2C[C@H]([C@H]1C)C2(C)C", "experimental system": "SF-295 CNS", "growth [%]": 11}
{"compound": "OCCn1cc(-c2nc3ccc4[nH]ncc4c3c3c2CCCC3)cn1", "experimental system": "SF-295 CNS", "growth [%]": 60.9}
{"compound": "COC(=O)c1ccc(-c2c(-c3ccccc3)c(F)c3oc(C(=O)OC)c(N)c3c2-c2ccccc2)cc1", "experimental system": "SF-295 CNS", "growth [%]": 89.7}
{"compound": "Nc1nn2c(-c3cc4cc(Br)ccc4oc3=O)ccnc2c1N=Nc1ccc(S(N)(=O)=O)cc1", "experimental system": "SF-295 CNS", "growth [%]": 62.2}
{"compound": "COc1ccccc1NC(=O)N/N=C/c1c[nH]c2ccccc12", "experimental system": "SF-295 CNS", "growth [%]": -14.5}
{"compound": "O=C1CCC(N2C(=O)c3cccc(NCCOCCOCCOCCC(=O)NCCCC(=O)NC(c4ccc5c(c4)OCO5)c4cc(Cl)c5cccnc5c4O)c3C2=O)C(=O)C1 (centres undefined)", "experimental system": "SF-295 CNS", "growth [%]": 61.6}
{"compound": "Cc1ccc(C(=O)C[n+]2cccc3c4ccccc4ccc32)cc1", "experimental system": "SF-295 CNS", "growth [%]": 23.4}
